Provide the recorded residual activity for the entries that follow.
target: Muscle, skeletal receptor tyrosine-protein kinase (Homo sapiens) (UniProt O15146); conditions: at 1 µM
Sequence (O15146 whole entry): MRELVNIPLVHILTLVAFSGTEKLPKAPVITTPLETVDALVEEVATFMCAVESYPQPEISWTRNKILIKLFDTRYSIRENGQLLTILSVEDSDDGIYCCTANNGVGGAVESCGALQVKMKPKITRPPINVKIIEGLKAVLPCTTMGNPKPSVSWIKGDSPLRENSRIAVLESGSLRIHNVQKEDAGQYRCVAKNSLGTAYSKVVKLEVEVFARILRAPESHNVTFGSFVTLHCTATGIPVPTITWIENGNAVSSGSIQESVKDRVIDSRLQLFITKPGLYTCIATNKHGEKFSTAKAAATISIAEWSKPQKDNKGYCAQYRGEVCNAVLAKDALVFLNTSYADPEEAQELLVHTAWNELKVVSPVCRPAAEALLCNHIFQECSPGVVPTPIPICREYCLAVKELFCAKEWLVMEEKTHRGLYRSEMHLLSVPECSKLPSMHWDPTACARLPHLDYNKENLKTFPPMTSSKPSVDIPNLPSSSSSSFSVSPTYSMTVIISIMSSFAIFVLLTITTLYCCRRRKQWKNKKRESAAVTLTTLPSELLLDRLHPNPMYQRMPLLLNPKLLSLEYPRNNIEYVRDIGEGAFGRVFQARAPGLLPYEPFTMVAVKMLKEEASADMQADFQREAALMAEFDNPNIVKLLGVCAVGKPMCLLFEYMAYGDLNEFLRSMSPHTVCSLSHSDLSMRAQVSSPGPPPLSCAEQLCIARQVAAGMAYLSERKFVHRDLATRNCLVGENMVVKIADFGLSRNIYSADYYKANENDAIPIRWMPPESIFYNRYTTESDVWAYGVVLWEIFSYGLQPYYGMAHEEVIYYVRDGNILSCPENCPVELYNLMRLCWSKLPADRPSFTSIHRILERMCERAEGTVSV
One number for each entry, in %.

Below are 2 compounds. Give each one its residual activity.
1. c1ccc2c(-c3ccncc3)c[nH]c2c1
2. CC#CC(=O)Nc1cc2c(Nc3ccc(F)c(Cl)c3)ncnc2cn1

OUTPUT:
1: 88; 2: 100

Look up residual activity for the entries below, preserving their order.
1. N#Cc1cnc2cnc(NCc3cccnc3)cc2c1Nc1ccc(F)c(Cl)c1
2. Cc1ccc(S(=O)(=O)/C=C/C#N)cc1
3. c1ccc(-c2n[nH]c3c2oc2ccccc23)cc1
4. O=C(Nc1cccc(Nc2nccc(Nc3cccc(C(F)(F)F)c3)n2)c1)C1CC1
5. O=[N+]([O-])c1ccc(-c2nc(-c3ccc(F)cc3)c(-c3ccncc3)[nH]2)cc1
6. Oc1ccc(Nc2nc(-c3ccc(Cl)cc3)cs2)cc1

OUTPUT:
93
85
14
88
102
112

For each listed entry, give its residual activity.
1. COc1cc2ncnc(Nc3ccc(O)c(Br)c3)c2cc1OC
2. N#CCCc1ccc2c(c1)-c1[nH]c3ccc([N+](=O)[O-])cc3c1CC(=O)N2

OUTPUT:
77
68

INPUT: Please report the recorded residual activity for CC(=O)O/N=C1\C(=C2\C(=O)Nc3cc(Br)ccc32)Nc2ccccc21 .
OUTPUT: 73
